TEST DETAILS: Half life in Wistar rat at 10 mg/kg
Format: ADME, organism-based
Parameters: dose 10 mg/kg
EXPERIMENTAL CONTEXT: Wistar, in vivo
PARAMETER: half-life
Write the quantity with the unit trailing the number.

QUERY: Supply half-life value. Item: COc1cccc(C(=O)N[C@@H](CC(C)(C)C)C(=O)N[C@@H](CC(=O)O)CN2CCc3cc(F)ccc32)c1
RESULT: 33.6 min

----------
TEST DETAILS: Cmax in Wistar rat at 10 mg/kg, po
Format: ADME, organism-based
Set-up: dose 10 mg/kg, route oral
EXPERIMENTAL CONTEXT: in vivo
Task for the reader: assign each of the following compounds its reported Cmax.
Numeric answer only, unit nM assumed.

QUERY: Supply Cmax value. Item: COc1cccc(C(=O)N[C@@H](CC(C)(C)C)C(=O)N[C@@H](CC(=O)O)CN2CCc3cc(F)ccc32)c1
RESULT: 45

QUERY: Supply Cmax value. Item: CCOC(=O)C[C@@H](CN1CCc2cc(F)ccc21)NC(=O)[C@H](CCC1CCCCC1)NC(=O)c1cccc(OC)c1
RESULT: 293
